Target: STAT3 (Homo sapiens)
Construct: expressed in transfected cells; host or cells: A549
Experiment: STAT3 HiBiT degradation assay in transfected A549 cells
Type: cell-based
Details: 24 h compound incubation, Nano-Glo HiBiT lytic detection, read-out: Cell: STAT3 HiBit A549 degradation 24 h GMean External Abs-DC50
Protocol: Compound preparation and Cell seeding: The transfected A549 cells were harvested from dish into cell culture medium and cell numbers counted. […] Detection: Plates were removed from incubators and equilibrated at room temperature for 15 minutes. […] 30 μL of Nano-Glo Hibit Lytic Detection reagent was added into each well to be detected. The plates were held at room temperature for 10 min followed by reading on EnSpire. […]
measurementName: DC50

[
  {
    "compound": "COC(=O)N1CC[C@H]2CC[C@@H](C(=O)N[C@@H](CCC(N)=O)C(=O)N[C@@H](Cc3ccc(F)c(F)c3)C(=O)N3CCC(CCCc4cccc5c4n(C)c(=O)n5C4CCC(=O)NC4=O)CC3)N2C(=O)[C@@H](NC(=O)c2cc3cc(C(=O)P(=O)(O)O)ccc3[nH]2)C1 (some centres unmarked) [Compound I-6]",
    "measurementName": "DC50",
    "endpointResult": "200 to 1000 nM"
  },
  {
    "compound": "COC(=O)N1CC[C@H]2CC[C@@H](C(=O)N[C@@H](CCC(N)=O)C(=O)N[C@H](C(=O)N3CCC(CCCc4ccc5c(c4)n(C)c(=O)n5C4CCC(=O)NC4=O)CC3)C3CCCCC3)N2C(=O)[C@@H](NC(=O)c2cc3cc(C(=O)P(=O)(O)O)ccc3[nH]2)C1 (some centres unmarked) [Compound I-18]",
    "measurementName": "DC50",
    "endpointResult": "200 to 1000 nM"
  },
  {
    "compound": "COC(=O)N1CC[C@H]2CC[C@@H](C(=O)N[C@@H](CCC(N)=O)C(=O)N[C@H](C(=O)N3CCC(CCC#Cc4cccc5c4n(C)c(=O)n5C4CCC(=O)NC4=O)CC3)C3CCCCC3)N2C(=O)[C@@H](NC(=O)c2cc3cc(C(=O)P(=O)(O)O)ccc3[nH]2)C1 (some centres unmarked) [Compound I-19]",
    "measurementName": "DC50",
    "endpointResult": "200 to 1000 nM"
  },
  {
    "compound": "Cn1c(=O)n(C2CCC(=O)NC2=O)c2ccc(CCCC3CCN(C(=O)[C@H](Cc4ccc(F)c(F)c4)NC(=O)[C@H](CCC(N)=O)NC(=O)[C@@H]4CC[C@@H]5CCCC[C@H](NC(=O)c6cc7cc(C(=O)P(=O)(O)O)ccc7[nH]6)C(=O)N54)CC3)cc21 (some centres unmarked) [Compound I-12]",
    "measurementName": "DC50",
    "endpointResult": "200 to 1000 nM"
  },
  {
    "compound": "CC(=O)N1CC[C@H]2CC[C@@H](C(=O)N[C@@H](CCC(N)=O)C(=O)N[C@@H](Cc3ccc(F)c(F)c3)C(=O)N3CCC(CCC#Cc4ccc5c(c4)n(C)c(=O)n5C4CCC(=O)NC4=O)CC3)N2C(=O)[C@@H](NC(=O)c2cc3cc(C(F)(F)P(=O)(O)O)ccc3s2)C1 (some centres unmarked) [Compound I-10]",
    "measurementName": "DC50",
    "endpointResult": "50 to 200 nM"
  }
]

[in] Give the value of DC50 reported for the following: CC(=O)N1CC[C@H]2CC[C@@H](C(=O)N[C@@H](CCC(N)=O)C(=O)N[C@H](C(=O)N3CCC(CCC#Cc4cccc5c4n(C)c(=O)n5C4CCC(=O)NC4=O)CC3)C3CCCCC3)N2C(=O)[C@@H](NC(=O)c2cc3cc(C(=O)P(=O)(O)O)ccc3[nH]2)C1 (some centres unmarked) [Compound I-29]
[out] > 1000 nM

[in] Give the value of DC50 reported for the following: COC(=O)N1CC[C@H]2CC[C@@H](C(=O)N[C@@H](CCC(N)=O)C(=O)N[C@H](C(=O)N3CCC(CCCc4ccc5c(c4)n(C)c(=O)n5C4CCC(=O)NC4=O)CC3)C3CCCCC3)N2C(=O)[C@@H](NC(=O)c2cc3cc(C(F)(F)P(=O)(O)O)ccc3s2)C1 (some centres unmarked) [Compound I-15]
[out] 200 to 1000 nM

[in] Give the value of DC50 reported for the following: CC(=O)N1CC[C@H]2CC[C@@H](C(=O)N[C@@H](CCC(N)=O)C(=O)N[C@@H](Cc3ccc(F)c(F)c3)C(=O)N3CCC(CCCc4cccc5c4n(C)c(=O)n5C4CCC(=O)NC4=O)CC3)N2C(=O)[C@@H](NC(=O)c2cc3cc(C(=O)P(=O)(O)O)ccc3[nH]2)C1 (some centres unmarked) [Compound I-9]
[out] 200 to 1000 nM

[in] Give the value of DC50 reported for the following: COC(=O)N1CC[C@H]2CC[C@@H](C(=O)N[C@@H](CCC(N)=O)C(=O)N[C@@H](Cc3ccc(F)c(F)c3)C(=O)N3CCC(CCC#Cc4ccc5c(c4)n(C)c(=O)n5C4CCC(=O)NC4=O)CC3)N2C(=O)[C@@H](NC(=O)c2cc3cc(C(=O)P(=O)(O)O)ccc3[nH]2)C1 (some centres unmarked) [Compound I-4]
[out] 200 to 1000 nM

[in] Give the value of DC50 reported for the following: CC(=O)N1CC[C@H]2CC[C@@H](C(=O)N[C@@H](CCC(N)=O)C(=O)N[C@H](C(=O)N3CCC(CCCc4ccc5c(c4)n(C)c(=O)n5C4CCC(=O)NC4=O)CC3)C3CCCCC3)N2C(=O)[C@@H](NC(=O)c2cc3cc(C(=O)P(=O)(O)O)ccc3s2)C1 (some centres unmarked) [Compound I-30]
[out] > 1000 nM

[in] Give the value of DC50 reported for the following: CC(=O)N1CC[C@H]2CC[C@@H](C(=O)N[C@@H](CCC(N)=O)C(=O)N[C@H](C(=O)N3CCC(CCCCc4cccc5c4n(C)c(=O)n5C4CCC(=O)NC4=O)CC3)C3CCCCC3)N2C(=O)[C@@H](NC(=O)c2cc3cc(C(=O)P(=O)(O)O)ccc3[nH]2)C1 (some centres unmarked) [Compound I-27]
[out] > 1000 nM

[in] Give the value of DC50 reported for the following: COC(=O)N1CC[C@H]2CC[C@@H](C(=O)N[C@@H](CCC(N)=O)C(=O)N[C@@H](Cc3ccc(F)c(F)c3)C(=O)N3CCC(CCC#Cc4ccc5c(c4)n(C)c(=O)n5C4CCC(=O)NC4=O)CC3)N2C(=O)[C@@H](NC(=O)c2cc3cc(C(F)(F)P(=O)(O)O)ccc3s2)C1 (some centres unmarked) [Compound I-1]
[out] < 50 nM

[in] Give the value of DC50 reported for the following: COC(=O)N1CC[C@H]2CC[C@@H](C(=O)N[C@@H](CCC(N)=O)C(=O)N[C@H](C(=O)N3CCC(CCC#Cc4cccc5c4n(C)c(=O)n5C4CCC(=O)NC4=O)CC3)C3CCCCC3)N2C(=O)[C@@H](NC(=O)c2cc3cc(C(F)(F)P(=O)(O)O)ccc3s2)C1 (some centres unmarked) [Compound I-16]
[out] 200 to 1000 nM

[in] Give the value of DC50 reported for the following: COC(=O)N1CC[C@H]2CC[C@@H](C(=O)N[C@@H](CCC(N)=O)C(=O)N[C@@H](Cc3ccc(F)c(F)c3)C(=O)N3CCC(CCCc4cccc5c4n(C)c(=O)n5C4CCC(=O)NC4=O)CC3)N2C(=O)[C@@H](NC(=O)c2cc3cc(C(F)(F)P(=O)(O)O)ccc3s2)C1 (some centres unmarked) [Compound I-3]
[out] < 50 nM

* * *

Biological target: STAT3 (Homo sapiens, UniProt P40763)
Construct: expressed in transfected cells; host or cells: A549
Sequence (P40763 whole entry): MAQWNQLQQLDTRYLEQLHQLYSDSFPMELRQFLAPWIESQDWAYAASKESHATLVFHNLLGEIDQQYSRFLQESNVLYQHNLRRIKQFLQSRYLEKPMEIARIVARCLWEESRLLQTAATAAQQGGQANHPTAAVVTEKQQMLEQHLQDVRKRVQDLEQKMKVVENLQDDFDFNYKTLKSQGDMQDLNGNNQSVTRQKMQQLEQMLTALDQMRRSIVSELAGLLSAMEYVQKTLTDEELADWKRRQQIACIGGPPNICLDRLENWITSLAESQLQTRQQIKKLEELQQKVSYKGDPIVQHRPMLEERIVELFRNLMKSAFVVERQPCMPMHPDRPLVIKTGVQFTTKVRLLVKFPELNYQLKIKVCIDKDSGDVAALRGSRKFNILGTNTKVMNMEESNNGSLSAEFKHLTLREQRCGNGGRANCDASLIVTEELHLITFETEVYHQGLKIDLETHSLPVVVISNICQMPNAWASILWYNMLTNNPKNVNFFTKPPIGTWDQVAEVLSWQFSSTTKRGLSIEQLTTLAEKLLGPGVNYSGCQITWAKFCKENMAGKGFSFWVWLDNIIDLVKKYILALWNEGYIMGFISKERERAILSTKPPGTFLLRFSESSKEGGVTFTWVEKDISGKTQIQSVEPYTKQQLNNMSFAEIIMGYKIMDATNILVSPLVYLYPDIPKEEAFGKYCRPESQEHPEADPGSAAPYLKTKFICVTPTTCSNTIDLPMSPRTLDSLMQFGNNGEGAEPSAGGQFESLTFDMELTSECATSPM
Assay: STAT3 HiBiT degradation assay in transfected A549 cells
Type: cell-based
Details: 24 h compound incubation, Nano-Glo HiBiT lytic detection, read-out: Cell: STAT3 HiBit A549 degradation 24 h GMean External Abs-DC50
Procedure: Compound preparation and Cell seeding: The transfected A549 cells were harvested from dish into cell culture medium and cell numbers counted. […] Detection: Plates were removed from incubators and equilibrated at room temperature for 15 minutes. […] 30 μL of Nano-Glo Hibit Lytic Detection reagent was added into each well to be detected. The plates were held at room temperature for 10 min followed by reading on EnSpire. […]
measurementName: DC50

// known answers, use as guide
[
  {
    "molecule": "COC(=O)N1CC[C@H]2CC[C@@H](C(=O)N[C@@H](CCC(N)=O)C(=O)N[C@@H](Cc3ccc(F)c(F)c3)C(=O)N3CCC(CCCc4ccc5c(c4)n(C)c(=O)n5C4CCC(=O)NC4=O)CC3)N2C(=O)[C@@H](NC(=O)c2cc3cc(C(=O)P(=O)(O)O)ccc3[nH]2)C1 (stereo partly drawn)",
    "endpointResult": "50 to 200 nM"
  },
  {
    "molecule": "CC(=O)N1CC[C@H]2CC[C@@H](C(=O)N[C@@H](CCC(N)=O)C(=O)N[C@@H](Cc3ccc(F)c(F)c3)C(=O)N3CCC(CCC#Cc4ccc5c(c4)n(C)c(=O)n5C4CCC(=O)NC4=O)CC3)N2C(=O)[C@@H](NC(=O)c2cc3cc(C(=O)P(=O)(O)O)ccc3[nH]2)C1 (stereo partly drawn)",
    "endpointResult": "200 to 1000 nM"
  },
  {
    "molecule": "CC(=O)N1CC[C@H]2CC[C@@H](C(=O)N[C@@H](CCC(N)=O)C(=O)N[C@H](C(=O)N3CCC(CCC#Cc4cccc5c4n(C)c(=O)n5C4CCC(=O)NC4=O)CC3)C3CCCCC3)N2C(=O)[C@@H](NC(=O)c2cc3cc(C(=O)P(=O)(O)O)ccc3s2)C1 (stereo partly drawn)",
    "endpointResult": "50 to 200 nM"
  },
  {
    "molecule": "CC(=O)N1CC[C@H]2CC[C@@H](C(=O)N[C@@H](CCC(N)=O)C(=O)N[C@H](C(=O)N3CCC(CCCCc4cccc5c4n(C)c(=O)n5C4CCC(=O)NC4=O)CC3)C3CCCCC3)N2C(=O)[C@@H](NC(=O)c2cc3cc(C(=O)P(=O)(O)O)ccc3s2)C1 (stereo partly drawn)",
    "endpointResult": "200 to 1000 nM"
  },
  {
    "molecule": "COC(=O)N1CC[C@H]2CC[C@@H](C(=O)N[C@@H](CCC(N)=O)C(=O)N[C@@H](Cc3ccc(F)c(F)c3)C(=O)N3CCC(CCCc4ccc5c(c4)n(C)c(=O)n5C4CCC(=O)NC4=O)CC3)N2C(=O)[C@@H](NC(=O)c2cc3cc(C(F)(F)P(=O)(O)O)ccc3s2)C1 (stereo partly drawn)",
    "endpointResult": "< 50 nM"
  }
]

[in] Give the value of DC50 reported for the following: COC(=O)N1CC[C@H]2CC[C@@H](C(=O)N[C@@H](CCC(N)=O)C(=O)N[C@H](C(=O)N3CCC(CCCCc4cccc5c4n(C)c(=O)n5C4CCC(=O)NC4=O)CC3)C3CCCCC3)N2C(=O)[C@@H](NC(=O)c2cc3cc(C(=O)P(=O)(O)O)ccc3[nH]2)C1 (stereo partly drawn)
[out] 200 to 1000 nM

[in] Give the value of DC50 reported for the following: Cn1c(=O)n(C2CCC(=O)NC2=O)c2ccc(CCCC3CCN(C(=O)[C@H](Cc4ccc(F)c(F)c4)NC(=O)[C@H](CCC(N)=O)NC(=O)[C@@H]4CC[C@@H]5CCCC[C@H](NC(=O)c6cc7cc(C(F)(F)P(=O)(O)O)ccc7s6)C(=O)N54)CC3)cc21 (stereo partly drawn)
[out] 50 to 200 nM

[in] Give the value of DC50 reported for the following: Cn1c(=O)n(C2CCC(=O)NC2=O)c2cccc(CCCC3CCN(C(=O)[C@H](Cc4ccc(F)c(F)c4)NC(=O)[C@H](CCC(N)=O)NC(=O)N4Cc5cccc6c5C4C(=O)[C@@H](NC(=O)c4cc5cc(C(F)(F)P(=O)(O)O)ccc5s4)CC6)CC3)c21 (stereo partly drawn)
[out] > 1000 nM

[in] Give the value of DC50 reported for the following: Cn1c(=O)n(C2CCC(=O)NC2=O)c2cccc(CCCC3CCN(C(=O)[C@H](Cc4ccc(F)c(F)c4)NC(=O)[C@H](CCC(N)=O)NC(=O)N4Cc5cccc6c5C4C(=O)[C@@H](NC(=O)c4cc5cc(C(=O)P(=O)(O)O)ccc5[nH]4)CC6)CC3)c21 (stereo partly drawn)
[out] 200 to 1000 nM
